protocol: in vitro
settings: African green monkey
CC50 values by entry

Solved cases below.
• COc1cccc2[nH]c(C(=O)N[C@@H](CC(C)C)C(=O)N[C@@H](C[C@@H]3CCNC3=O)C(=O)CO)cc12 = > 10 µM
• CC(C)(C)[C@H](NC(=O)C(F)(F)F)C(=O)N1C[C@H]2[C@@H]([C@H]1C(=O)N[C@H](C#N)C[C@@H]1CCNC1=O)C2(C)C = > 10 µM

**Q:** Which CC50 value belongs to `COc1cccc2[nH]c(C(=O)N3C[C@@H]4CCC[C@@H]4[C@H]3C(=O)N[C@@H](C[C@@H]3CCCNC3=O)C(=O)CO)cc12` ?
**A:** > 10 µM

----------
Test system: SARS-CoV-2 WT-USA-WA1
protocol: microbe, parasite or virus in culture
Assay type: cell-based
settings: Severe acute respiratory syndrome coronavirus 2, Vero C1008, read-out: SARS-CoV-2 WT-USA-WA1 EC50
pEC50 values by entry
Here pEC50 is given on a logarithmic scale as minus log10 of the concentration in mol/L.

Solved cases below.
• Cn1cnc(Cn2c(=O)[nH]/c(=N\c3cc4cn(C)nc4cc3Cl)n(Cc3cc(F)c(F)cc3F)c2=O)n1 [Ensitrelvir, ensitrelvir] = 6.68
• COc1cccc2[nH]c(C(=O)N3C[C@@H]4CCC[C@@H]4[C@H]3C(=O)N[C@@H](C[C@@H]3CCCNC3=O)C(=O)CO)cc12 [ALG-097161] = 6.22

Attention now shifts to the item below.
**Q:** Which pEC50 value belongs to CC(C)(C)[C@H](NC(=O)C(F)(F)F)C(=O)N1C[C@H]2[C@@H]([C@H]1C(=O)N[C@H](C#N)C[C@@H]1CCNC1=O)C2(C)C [Nirmatrelvir, nirmatrelvir] ?
**A:** 6.96

From: paper PMC9973015
